Biological target: E. coli DdlB enzyme (D-alanine:D-alanine ligase) (Escherichia coli)
Construct: made in house; host or cells: E. coli
Test: biochemical
Settings: tested concentration 1.8 mM; read-out: DdlB RA
observed property: remaining activity at 1800 µM (%)
Give bare numbers, in %.

>  <mol smiles>
Cc1ccc(S(N)(=O)=O)cc1C(=O)NCC(C)C

>  <remaining activity at 1800 µM [%]>
83

$$$$
>  <mol smiles>
O=C(Nc1ccc2[nH]c(=O)oc2c1)c1ccc(F)cc1

>  <remaining activity at 1800 µM [%]>
74

$$$$
>  <mol smiles>
O=c1[nH]c2cc(S(=O)(=O)N3CCCCC3)ccc2o1

>  <remaining activity at 1800 µM [%]>
103

$$$$

Now examine the next entry.
For the molecule CN(Cc1ccccc1)c1c(-c2ccccc2)c(=O)c1=O , give its measured remaining activity at 1800 µM value.
103
